experiment_summary: E. coli DRC41 culture turbidity changes, primary screen, E. coli filamentation inducer project, strain DRC41, OD650, 48 h (AID 1152);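 further: E. coli MC1000 strain DRC41 lacking acrAB efflux pump and sulA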
applied_conditions: E. coli DRC41 (acrAB sulA), higher = more signal, called active from +8 up or from −8 down
Mark True for reported z-score of 0.2 or greater; mark False for anything smaller.

Take a look at these entries with their results.
>  <compound>
CCOC(=O)CCN1C(=O)[C@H]2[C@H]3[C@H](O)[C@H](O)CC(=NNC(=O)OCC)[C@@H]3CC[C@H]2C1=O

>  <class_label>
True

$$$$
>  <compound>
CCOC(=O)[C@H](CC(C)C)NC(=O)CCC1CC(OC(=O)NCc2cccc3ccccc23)CC2(CCCC(COC(=O)NCc3ccccc3)O2)O1 (stereo not given in full)

>  <class_label>
False

$$$$
>  <compound>
O=C1[C@H]2[C@H]3[C@H](O)[C@H](O)CC(=NOCc4ccccc4)[C@H]3CC[C@H]2C(=O)N1Cc1ccccc1

>  <class_label>
False

$$$$
>  <compound>
CC(C)C(=O)N[C@@H]1CCCN1C(=O)C=Cc1ccccc1

>  <class_label>
True

$$$$
>  <compound>
CCCNC(=O)OC[C@H]1O[C@H](CCON=C(C)CCN2CCc3nc(-c4ccccc4)c(-c4ccccc4)cc3C2)C=C[C@@H]1Oc1ccc(OC)cc1

>  <class_label>
False

$$$$
>  <compound>
COc1ccc(COC(=O)NN=C2C[C@@H](O)[C@@H](O)[C@@H]3[C@@H]4C(=O)N(C(C)(C)C)C(=O)[C@@H]4CC[C@H]23)cc1

>  <class_label>
True

$$$$
>  <compound>
CC(C)=NOCc1ccc(-c2cn([C@@H]3COC[C@H]3O)nn2)cc1

>  <class_label>
False

$$$$
>  <compound>
C[C@@H](c1ccccc1)N1C(=O)[C@H]2[C@H]3[C@H](O)[C@H](O)CC(=O)[C@@H]3CC[C@H]2C1=O

>  <class_label>
True

$$$$
>  <compound>
CC(C)CON=C1C[C@@H](O)[C@@H](O)[C@@H]2[C@@H]3C(=O)N(c4cccc(Oc5ccccc5)c4)C(=O)[C@@H]3CC[C@H]12

>  <class_label>
True

$$$$

Please look at the following compound next.
Has CO[C@@H]1COC(=O)CC=C[C@H](C)COC(=O)[C@H](C)NC(=O)CC=C[C@H]1C a recorded z-score greater than or equal to 0.2?
False

###

The entries below come with measured z-score values attached.
experiment_summary: modulators of S6 phosphorylation in cells, primary screen, cell-based, A549, cytoblot, luminescence, serum-stimulated (AID 1158);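 further: serum-stimulated A549 lung adenocarcinoma cells; signal is phosphorylated S6 detected by cytoblot immunostaining with HRP secondary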
applied_conditions: A549 phospho-S6 cytoblot, 5 h, higher = more signal
Just the number, please, no unit attached.

Guide cases for z-score, answers given:
>  <compound>
C=C(C)C(=O)OC[C@@H]1CN2[C@@H](CC[C@@H](C)[C@@H]2c2ccc(Br)cc2)C(=O)O1

>  <value_observed>
0.525

$$$$
>  <compound>
O=C(NN=C1C[C@@H](O)[C@@H](O)[C@@H]2[C@@H]3C(=O)N(Cc4ccc5c(c4)OCO5)C(=O)[C@@H]3CC[C@H]12)OCc1ccccc1

>  <value_observed>
-0.241

$$$$

From here, focus on the item given below.
Form field: reported z-score of CC(C)=NOCc1ccc(-c2cn([C@@H]3COC[C@H]3O)nn2)cc1
-0.119

Source: PubChem BioAssay
